The origin of these recorded values is the NIST ThermoML archive (doi:10.1016/j.fluid.2017.03.021).

# Condition Summary: 339.15 K; 101.33 kPa; Liquid; Sing-around technique in a fixed-path interferometer
Please go through the items and note down their speed of sound.
One number for each entry, in m/s.

A selection of reference data follows.
- Smiles Record: "CCCCn1cc[n+](CCC(C)C)c1.O=S(=O)([N-]S(=O)(=O)C(F)(F)F)C(F)(F)F"
  Endpoint Value: 1125.7
- Smiles Record: "CCCC[n+]1ccn(C2CCCC2)c1.O=S(=O)([N-]S(=O)(=O)C(F)(F)F)C(F)(F)F"
  Endpoint Value: 1176.1
- Smiles Record: "CCCCn1cc[n+](C(CC)CC)c1.O=S(=O)([N-]S(=O)(=O)C(F)(F)F)C(F)(F)F"
  Endpoint Value: 1120.8

Consider the molecule CCCCC[n+]1ccn(CCCC)c1.O=S(=O)([N-]S(=O)(=O)C(F)(F)F)C(F)(F)F and give its measured speed of sound.
1123

###

For each of the molecules below, state its mass density.
# Condition Summary: 323.15 K; 101.33 kPa; Liquid; Vibrating tube method
± gives the expanded uncertainty stated by the source.

Examples with their reported mass density follow.
- Smiles Record: "CCCCC[n+]1ccn(CCCC)c1.O=S(=O)([N-]S(=O)(=O)C(F)(F)F)C(F)(F)F"
  mass density: "1295.2 ± 9.1 kg/m3"
- Smiles Record: "CCCCCC[n+]1ccn(C)c1.O=S(=O)([N-]S(=O)(=O)C(F)(F)F)C(F)(F)F"
  mass density: "1349.6 ± 0.5 kg/m3"
- Smiles Record: "CCCCn1cc[n+](C(CC)CC)c1.O=S(=O)([N-]S(=O)(=O)C(F)(F)F)C(F)(F)F"
  mass density: "1297.4 ± 9.2 kg/m3"
- Smiles Record: "CCCCn1cc[n+](CCC(C)C)c1.O=S(=O)([N-]S(=O)(=O)C(F)(F)F)C(F)(F)F"
  mass density: "1296.1 ± 9.2 kg/m3"

Please find the next molecule below.
# get_value(readout='mass density', item= CCCC[n+]1ccn(C2CCCC2)c1.O=S(=O)([N-]S(=O)(=O)C(F)(F)F)C(F)(F)F )
1352.1 ± 10 kg/m3

###

# Condition Summary: 341.15 K; 101.33 kPa; Liquid; Vibrating tube method
Endpoint Label: mass density (kg/m3)
Answers are plain numbers, in kg/m3.

- Smiles Record: "CCCCn1cc[n+](CCC(C)C)c1.O=S(=O)([N-]S(=O)(=O)C(F)(F)F)C(F)(F)F"
  Endpoint Label: "mass density"
  Quantity Unit: "kg/m3"
  Endpoint Value: 1280.4
- Smiles Record: "CCCC[n+]1ccn(C2CCCC2)c1.O=S(=O)([N-]S(=O)(=O)C(F)(F)F)C(F)(F)F"
  Endpoint Label: "mass density"
  Quantity Unit: "kg/m3"
  Endpoint Value: 1336
- Smiles Record: "CCCCC[n+]1ccn(CCCC)c1.O=S(=O)([N-]S(=O)(=O)C(F)(F)F)C(F)(F)F"
  Endpoint Label: "mass density"
  Quantity Unit: "kg/m3"
  Endpoint Value: 1279.6

Given the entry CCCCn1cc[n+](C(CC)CC)c1.O=S(=O)([N-]S(=O)(=O)C(F)(F)F)C(F)(F)F , report its measured mass density.
1281.8

###

# Assay Name: molar heat capacity at constant pressure
# Condition Summary: 321.15 K; 101.33 kPa; Liquid; DSC
Assignment: determine reported molar heat capacity at constant pressure for the given compounds.
Give bare numbers, in J/K/mol.

Examples from the recorded data:
- Smiles Record: "CCCCC[n+]1ccn(CCCC)c1.O=S(=O)([N-]S(=O)(=O)C(F)(F)F)C(F)(F)F"
  Quantity Unit: "J/K/mol"
  Endpoint Value: 703.98
- Smiles Record: "CCCCn1cc[n+](C(CC)CC)c1.O=S(=O)([N-]S(=O)(=O)C(F)(F)F)C(F)(F)F"
  Quantity Unit: "J/K/mol"
  Endpoint Value: 714.58

Hi, could you look up molar heat capacity at constant pressure for each item in my list?
1. CCCCn1cc[n+](CCC(C)C)c1.O=S(=O)([N-]S(=O)(=O)C(F)(F)F)C(F)(F)F
2. CCCC[n+]1ccn(C2CCCC2)c1.O=S(=O)([N-]S(=O)(=O)C(F)(F)F)C(F)(F)F

1. 702.84
2. 668.94

###

# Assay Name: molar heat capacity at constant pressure
# Condition Summary: 316.15 K; 101.33 kPa; Liquid; DSC
Kindly state molar heat capacity at constant pressure for each of the entries shown.
Answers are plain numbers, in J/K/mol.

Consider the reported molar heat capacity at constant pressure for these compounds:
- Smiles Record: "CCCCC[n+]1ccn(CCCC)c1.O=S(=O)([N-]S(=O)(=O)C(F)(F)F)C(F)(F)F"
  Quantity Unit: "J/K/mol"
  molar heat capacity at constant pressure: 700.08
- Smiles Record: "CCCC[n+]1ccn(C2CCCC2)c1.O=S(=O)([N-]S(=O)(=O)C(F)(F)F)C(F)(F)F"
  Quantity Unit: "J/K/mol"
  molar heat capacity at constant pressure: 665.35
- Smiles Record: "CCCCn1cc[n+](CCC(C)C)c1.O=S(=O)([N-]S(=O)(=O)C(F)(F)F)C(F)(F)F"
  Quantity Unit: "J/K/mol"
  molar heat capacity at constant pressure: 698.94

Could you now look at the following compound, please?
Please report the recorded molar heat capacity at constant pressure for CCCCn1cc[n+](C(CC)CC)c1.O=S(=O)([N-]S(=O)(=O)C(F)(F)F)C(F)(F)F .
710.35

###

# Assay Name: molar heat capacity at constant pressure
# Condition Summary: 298.15 K; 101.33 kPa; Liquid; DSC
Endpoint Label: molar heat capacity at constant pressure (J/K/mol)
Answers are plain numbers, in J/K/mol.

Look over these answered cases.
- Smiles Record: "CCCCC[n+]1ccn(CCCC)c1.O=S(=O)([N-]S(=O)(=O)C(F)(F)F)C(F)(F)F"
  Endpoint Label: "molar heat capacity at constant pressure"
  Endpoint Value: 687.34
- Smiles Record: "CCCC[n+]1ccn(C2CCCC2)c1.O=S(=O)([N-]S(=O)(=O)C(F)(F)F)C(F)(F)F"
  Endpoint Label: "molar heat capacity at constant pressure"
  Endpoint Value: 651.99
- Smiles Record: "CCCCn1cc[n+](CCC(C)C)c1.O=S(=O)([N-]S(=O)(=O)C(F)(F)F)C(F)(F)F"
  Endpoint Label: "molar heat capacity at constant pressure"
  Endpoint Value: 685.77

As a next step, examine the compound that follows.
Any idea what molar heat capacity at constant pressure was measured for CCCCn1cc[n+](C(CC)CC)c1.O=S(=O)([N-]S(=O)(=O)C(F)(F)F)C(F)(F)F ?
696.61

###

Give molar heat capacity at constant pressure for every item shown.
# Assay Name: molar heat capacity at constant pressure
# Condition Summary: 336.15 K; 101.33 kPa; Liquid; DSC
Numbers after ± are expanded uncertainties.
Express your answer as a number followed by its unit.

The cases that follow already have their molar heat capacity at constant pressure on record.
- Smiles Record: "CCCCn1cc[n+](CCC(C)C)c1.O=S(=O)([N-]S(=O)(=O)C(F)(F)F)C(F)(F)F"
  molar heat capacity at constant pressure: "714.92 ± 28 J/K/mol"
- Smiles Record: "CCCC[n+]1ccn(C2CCCC2)c1.O=S(=O)([N-]S(=O)(=O)C(F)(F)F)C(F)(F)F"
  molar heat capacity at constant pressure: "680.88 ± 26 J/K/mol"
- Smiles Record: "CCCCC[n+]1ccn(CCCC)c1.O=S(=O)([N-]S(=O)(=O)C(F)(F)F)C(F)(F)F"
  molar heat capacity at constant pressure: "715.68 ± 28 J/K/mol"

Reported molar heat capacity at constant pressure, compound CCCCn1cc[n+](C(CC)CC)c1.O=S(=O)([N-]S(=O)(=O)C(F)(F)F)C(F)(F)F : ____
726.23 ± 28 J/K/mol

###

# Condition Summary: 321.15 K; 101.33 kPa; Liquid; Vibrating tube method
Numbers after ± are expanded uncertainties.
What mass density was measured for each of the following?
Just the number plus its unit, please.

- Smiles Record: "CCCCn1cc[n+](CCC(C)C)c1.O=S(=O)([N-]S(=O)(=O)C(F)(F)F)C(F)(F)F"
  Endpoint Value: "1297.8 ± 9.2 kg/m3"
- Smiles Record: "CCCCn1cc[n+](C(CC)CC)c1.O=S(=O)([N-]S(=O)(=O)C(F)(F)F)C(F)(F)F"
  Endpoint Value: "1299.1 ± 9.2 kg/m3"
- Smiles Record: "CCCCC[n+]1ccn(CCCC)c1.O=S(=O)([N-]S(=O)(=O)C(F)(F)F)C(F)(F)F"
  Endpoint Value: "1297 ± 9.2 kg/m3"

Reported mass density, molecule CCCC[n+]1ccn(C2CCCC2)c1.O=S(=O)([N-]S(=O)(=O)C(F)(F)F)C(F)(F)F : ____
1353.9 ± 10 kg/m3

###

# Assay Name: molar heat capacity at constant pressure
# Condition Summary: 334.15 K; 101.33 kPa; Liquid; DSC
Task for the reader: assign each of the following compounds its reported molar heat capacity at constant pressure.
Answers are plain numbers, in J/K/mol.

- Smiles Record: "CCCC[n+]1ccn(C2CCCC2)c1.O=S(=O)([N-]S(=O)(=O)C(F)(F)F)C(F)(F)F"
  molar heat capacity at constant pressure (J/K/mol): 679.22

Your task in this section: give molar heat capacity at constant pressure for each listed record.
1. CCCCn1cc[n+](CCC(C)C)c1.O=S(=O)([N-]S(=O)(=O)C(F)(F)F)C(F)(F)F
2. CCCCC[n+]1ccn(CCCC)c1.O=S(=O)([N-]S(=O)(=O)C(F)(F)F)C(F)(F)F
3. CCCCn1cc[n+](C(CC)CC)c1.O=S(=O)([N-]S(=O)(=O)C(F)(F)F)C(F)(F)F

1: 713.49; 2: 714.16; 3: 724.81
